Quick reference: MIC against E. cloacae of the listed items.
system: Enterobacter cloacae; assay: MIC against Gram-negative bacteria: Enterobacter cloacae; assay type: cell-based; conditions: Enterobacter cloacae; 96-well plate, 5×10^5 CFU/mL, 37° C., 10 h
MEASURED ATTRIBUTE: MIC against E. cloacae (µg/mL)

> print(dat)
                                  substance  value.reported
1  PRT1262 (DVDECSMSNGSCDQGCVNTKGSYECVCPPGRRLHWNGKDCV; listed as Homo sapiens)            12.5
2  PRT1329 (LPAVCTPPCSAHATCKENNTCECNLDYEGDGITCT; listed as Homo sapiens)            12.5
3  PRT1343 (VFHECFFNPCHNSGTCQQLGRGYVCLCPLGYTGLKCE; listed as Homo sapiens)              25
4  PRT1243 (FGESCEQQCPHCRHGEACEPDTGHCQRCDPGWLGPRCE; listed as Homo sapiens)            12.5
